All figures here come from the supplement of paper PMC4862054.

The following compounds are listed with their measured normalised response values.
# Test system: CAL-120
# MEASUREMENT_NOTES: normalised response (% of control), CellTiter-Glo; higher = more viable cells (100 = DMSO, 0 = benzethonium chloride kill control)
# CONDITION_CONTEXT: incubation time: 72 h
REPORTED_PROPERTY: normalised response (%)

[
  {
    "COMPOUND": "C#Cc1cccc(Nc2ncnc3cc(OC)c(OCCCCCCC(=O)NO)cc23)c1 [CUDC-101] (100 nM)",
    "ASSAYED_SYSTEM": "CAL-120",
    "REPORTED_PROPERTY": "normalised response",
    "RESULT_VALUE": 93.3
  },
  {
    "COMPOUND": "CCS(=O)(=O)c1cccc(-c2cc(C(=O)NC3CCN(C)CC3)c(C)c3[nH]c4ncc(C)cc4c23)c1 [TAK-901] (10 nM)",
    "ASSAYED_SYSTEM": "CAL-120",
    "REPORTED_PROPERTY": "normalised response",
    "RESULT_VALUE": 99.6
  },
  {
    "COMPOUND": "Cc1cc(C(C)Nc2ccccc2)c2nc(N3CCOCC3)cc(=O)n2c1 (centres undefined) [TGX-221] (100 nM)",
    "ASSAYED_SYSTEM": "CAL-120",
    "REPORTED_PROPERTY": "normalised response",
    "RESULT_VALUE": 97.2
  },
  {
    "COMPOUND": "CCCC(CCC)C(=O)O [Valproic acid] (10000 nM)",
    "ASSAYED_SYSTEM": "CAL-120",
    "REPORTED_PROPERTY": "normalised response",
    "RESULT_VALUE": 111
  }
]

----------
# System: HCC1599
# MEASUREMENT_NOTES: normalised viability (% of control), CellTiter-Blue; higher = more viable cells (about 100 = DMSO control)
# CONDITION_CONTEXT: 10 nM; incubation time: 72 h

[
  {
    "MOLECULE": "COC(=O)C[C@](O)(CCCC(C)(C)O)C(=O)O[C@@H]1C(OC)=C[C@]23CCCN2CCc2cc4c(cc2[C@H]13)OCO4 [Omacetaxine mepesuccinate]",
    "normalised viability [%]": 68.9
  },
  {
    "MOLECULE": "O=c1[nH]c(=O)n([C@H]2C[C@H](O)[C@@H](CO)O2)cc1F [Floxuridine]",
    "normalised viability [%]": 86.9
  },
  {
    "MOLECULE": "CCCC(CCC)C(=O)O [Valproic acid]",
    "normalised viability [%]": 97.4
  },
  {
    "MOLECULE": "COC1=C2C[C@@H](C)C[C@H](OC)[C@H](O)[C@@H](C)/C=C(\\C)[C@H](OC(N)=O)[C@@H](OC)/C=C\\C=C(/C)C(=O)NC(=CC1=O)C2=O [Geldanamycin]",
    "normalised viability [%]": 113
  },
  {
    "MOLECULE": "C#Cc1cccc(Nc2ncnc3cc(OC)c(OCCCCCCC(=O)NO)cc23)c1 [CUDC-101]",
    "normalised viability [%]": 78.8
  },
  {
    "MOLECULE": "O=c1[nH]cc(F)c(=O)[nH]1 [Fluorouracil]",
    "normalised viability [%]": 102
  },
  {
    "MOLECULE": "O=C(c1ccc(OCCN2CCCCC2)cc1)c1c(-c2ccc(O)cc2)sc2cc(O)ccc12 [Raloxifene]",
    "normalised viability [%]": 95.7
  },
  {
    "MOLECULE": "COc1ccc(C2=N[C@@H](c3ccc(Cl)cc3)[C@@H](c3ccc(Cl)cc3)N2C(=O)N2CCNC(=O)C2)c(OC(C)C)c1 [Nutlin-3]",
    "normalised viability [%]": 96.1
  },
  {
    "MOLECULE": "O=P(O)(NCCCl)NCCCl [Ifosfamide mustard]",
    "normalised viability [%]": 96.2
  }
]
